experimental-target: human GCGR (full-length glucagon receptor of 477 amino acids) (human, UniProt P47871 26-477)
Sequence (P47871 26-477 limits assumed): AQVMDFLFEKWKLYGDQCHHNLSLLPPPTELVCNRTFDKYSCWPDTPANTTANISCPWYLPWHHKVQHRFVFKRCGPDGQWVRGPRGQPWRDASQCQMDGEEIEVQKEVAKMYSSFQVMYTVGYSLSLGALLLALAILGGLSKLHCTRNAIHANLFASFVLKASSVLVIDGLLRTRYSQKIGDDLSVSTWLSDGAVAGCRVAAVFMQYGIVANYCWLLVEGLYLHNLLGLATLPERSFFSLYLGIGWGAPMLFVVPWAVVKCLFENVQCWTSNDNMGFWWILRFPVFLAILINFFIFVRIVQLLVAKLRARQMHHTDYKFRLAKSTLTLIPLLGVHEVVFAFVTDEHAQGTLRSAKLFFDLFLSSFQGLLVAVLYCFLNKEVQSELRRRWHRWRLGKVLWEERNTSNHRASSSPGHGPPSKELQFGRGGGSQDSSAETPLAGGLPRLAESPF
test-summary: cell-based or functional assay
observed-property: Imax (%)
// units = %; emit number, no label

As a guide, the following entries are already answered.
Exercise: Consider the binder hu1810-9 (antibody, human IgG4 S228P, kappa, F234A L235A, V domains shown) VH: QVQLVQSGAEVKKPGSSVKVSCKASGGTFSNYAISWVRQAPGQGLEWMGEIYPTSGNTYYNEKFKGRVTITADKSTSTAYMELSSLRSEDTAVYYCARGVITTVVSTDYFDYWGQGTLVTVSS VL: DIQMTQSPSSLSASVGDRVTITCRASLDISNYLNWYQLKPGKAVKLLIYYTSTLHSGVSSRFSGSGSGTEYTLTISSLQPEDFATYYCQQGNMVPYTFGGGTKVEIKR and give its measured Imax.
Key: 90.4

Exercise: Consider the binder hu1810-3 (antibody, human IgG4 S228P, kappa, F234A L235A, V domains shown) VH: QVQLVQSGAEVKKPGSSVKVSCKASGGTFSNYAISWVRQAPGQGLEWIGEIYPTSGNTYYNEKFKGRATLTADRSTSTMYMELSSLRSEDTAVYYCASGVITTVVSTDYFDYWGQGTLVTVSS VL: DIQMTQSPSSLSASVGDRVTITCRASLDISNYLNWYQQKPGKAPKLLIYYTSTLHSGVPSRFSGSGSGTDFTLTISSLQPEDFATYYCQQGNMVPYTFGGGTKVEIKR and give its measured Imax.
Key: 95.4

Exercise: Consider the binder hu1803-7 (antibody, human IgG4 S228P, kappa, F234A L235A, V domains shown) VH: EVQLVQSGAEVKKPGASVKVSCKASGYTFTDYWIEWVRQAPGQGLEWIGEILPGSTYTNYNEKFKGRATFTADTSTSTAYMELSSLRSEDTAVYYCSRGLSTLMAVDYFDYWGQGTTVTVSS VL: DIQMTQSPSSLSASVGDRVTITCRASQDISNYLNWYQQKPGGAVKLLIYYSSTLHSGVPSRFSGSGSGTDYTLTISSLQPEDFATYFCQQTNIFPWTFGGGTKVEIKR and give its measured Imax.
Key: 100

Please examine the following record next.
Exercise: Consider the binder hu1803-6 (antibody, human IgG4 S228P, kappa, F234A L235A, V domains shown) VH: EVQLVQSGAEVKKPGASVKVSCKASGYTFTDYWIEWVRQAPGQGLEWMGEILPGSTYTNYNEKFKGRVTFTADTSTSTAYMELSSLRSEDTAVYYCARGLSTLMAVDYFDYWGQGTTVTVSS VL: DIQMTQSPSSLSASVGDRVTITCRASQDISNYLNWYQQKPGGAVKLLIYYSSTLHSGVPSRFSGSGSGTDYTLTISSLQPEDFATYFCQQTNIFPWTFGGGTKVEIKR and give its measured Imax.
Key: 100
